assay: Maximum solubility of the compound; assay type: physicochemical
METRIC: solubility (µM)
Numbers only, in µM.

Query :: Annotate the compound CN[C@@H]1[C@H](O[C@@H]2OC[C@@H](O)[C@H](O)[C@H]2O)[C@@H](O)[C@H](O[C@H]2c3cc(C)c(C(=O)N[C@H](C)C(=O)O)c(O)c3-c3c(cc4c(c3O)C(=O)c3cc(OC)cc(O)c3C4=O)[C@@H]2O)O[C@@H]1C [PRM-A, pradimicin-A, reference compound] with its measured solubility.
Result :: 120

====

assay: Cytotoxicity MTT assay, LR7 cells; type: cell-based, mouse; conditions: mouse
METRIC: CC50 at 3 days

Query :: Annotate the molecule CN[C@@H]1[C@H](O[C@@H]2OC[C@@H](O)[C@H](O)[C@H]2O)[C@@H](O)[C@H](O[C@H]2c3cc(C)c(C(=O)N[C@H](C)C(=O)O)c(O)c3-c3c(cc4c(c3O)C(=O)c3cc(OC)cc(O)c3C4=O)[C@@H]2O)O[C@@H]1C [PRM-A, pradimicin-A, reference compound] with its measured CC50 at 3 days.
Result :: > 120 µM

These measurements were taken from paper PMC7132385.
